Each recorded value in this set is attributed to the supplement of paper PMC9112550.

# Test system: Escherichia coli TOP10
# method_notes: shrunken log2 fold change of peptide-encoding DNA abundance (4.5 h post-induction vs induction); higher = less antimicrobial activity (less host growth inhibition)
# assay_setup: time post-induction: 4.5 h; library: site-saturation at positions 5, 18, 19, 20
Consider the following sequences; for each one, report its shrunken log2 fold change.

Reference set (5 entries):
RRIRSRPPRLPRPRPRPRMIPRP = -0.086
RRIRVRPPRLPRPRPRPADAPRP = -0.183
RRIRRRPPRLPRPRPRPQVSPRP = 0.0704
RRIRSRPPRLPRPRPRPWTGPRP = -0.105
RRIRTRPPRLPRPRPRPERGPRP = 0.715

Give me shrunken log2 fold change for each of these sequences, listed below.
1. RRIRRRPPRLPRPRPRPVQGPRP
2. RRIRVRPPRLPRPRPRPMSHPRP
3. RRIRWRPPRLPRPRPRPAAKPRP
4. RRIRMRPPRLPRPRPRPLVHPRP
5. RRIRWRPPRLPRPRPRPVHTPRP
6. RRIRIRPPRLPRPRPRPPHFPRP
7. RRIRIRPPRLPRPRPRPRRGPRP

1. 0.223
2. 0.171
3. 0.482
4. 0.035
5. 0.627
6. -0.138
7. 0.184

###

# Test system: Escherichia coli TOP10
# method_notes: shrunken log2 fold change of peptide-encoding DNA abundance (4.5 h post-induction vs induction); higher = less antimicrobial activity (less host growth inhibition)
# assay_setup: time post-induction: 4.5 h; library: site-saturation at positions 5, 18, 19, 20
Consider the following sequences; for each one, report its shrunken log2 fold change.
Numbers only.

Reference set (10 entries):
RRIRRRPPRLPRPRPRPFWLPRP = 0.231
RRIRDRPPRLPRPRPRPVGKPRP = 0.0278
RRIRARPPRLPRPRPRPPDIPRP = 0.289
RRIRKRPPRLPRPRPRPYAPPRP = -0.241
RRIRDRPPRLPRPRPRPQLEPRP = -0.0748
RRIRKRPPRLPRPRPRPERQPRP = 0.0351
RRIRQRPPRLPRPRPRPNQNPRP = -0.24
RRIRDRPPRLPRPRPRPSVQPRP = 0.111
RRIRQRPPRLPRPRPRPHQRPRP = 0.153
RRIRSRPPRLPRPRPRPWRVPRP = 0.108

Give me shrunken log2 fold change for each of these sequences, listed below.
1. RRIRARPPRLPRPRPRPGQIPRP
2. RRIRCRPPRLPRPRPRPEARPRP
3. RRIRCRPPRLPRPRPRPSWRPRP
4. RRIRYRPPRLPRPRPRPDQPPRP
5. RRIRNRPPRLPRPRPRPMYRPRP

0.216
0.193
-0.0716
0.0375
-0.473

###

# Test system: Escherichia coli TOP10;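 further: peptides expressed intracellularly from a pBAD plasmid library in pooled LB shake-flask culture, induced with 0.3% L-arabinose, DNA abundance read by NGS, three biological replicates, DESeq2 with apeglm shrinkage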
# method_notes: shrunken log2 fold change of peptide-encoding DNA abundance (4.5 h post-induction vs induction); higher = less antimicrobial activity (less host growth inhibition)
# assay_setup: time post-induction: 4.5 h; library: site-saturation at positions 5, 18, 19, 20
Consider the following sequences; for each one, report its shrunken log2 fold change.

RRIRNRPPRLPRPRPRPMAQPRP = 0.0103
RRIRARPPRLPRPRPRPYYWPRP = -0.77
RRIRERPPRLPRPRPRPHLWPRP = 2.71
RRIRERPPRLPRPRPRPPTDPRP = -0.0968
RRIRWRPPRLPRPRPRPGHKPRP = -0.14

Give me shrunken log2 fold change for each of these sequences, listed below.
1. RRIRHRPPRLPRPRPRPMQMPRP
2. RRIRFRPPRLPRPRPRPVEAPRP
3. RRIRFRPPRLPRPRPRPVLKPRP

-0.00907
-0.103
-0.24
